- Assayed target: von Hippel-Lindau disease tumor suppressor/SWI/SNF-related matrix-associated actin-dependent regulator of chromatin subfamily A member 2 (Homo sapiens, UniProt P51531+P40337)
- Sequence (P51531 whole entry): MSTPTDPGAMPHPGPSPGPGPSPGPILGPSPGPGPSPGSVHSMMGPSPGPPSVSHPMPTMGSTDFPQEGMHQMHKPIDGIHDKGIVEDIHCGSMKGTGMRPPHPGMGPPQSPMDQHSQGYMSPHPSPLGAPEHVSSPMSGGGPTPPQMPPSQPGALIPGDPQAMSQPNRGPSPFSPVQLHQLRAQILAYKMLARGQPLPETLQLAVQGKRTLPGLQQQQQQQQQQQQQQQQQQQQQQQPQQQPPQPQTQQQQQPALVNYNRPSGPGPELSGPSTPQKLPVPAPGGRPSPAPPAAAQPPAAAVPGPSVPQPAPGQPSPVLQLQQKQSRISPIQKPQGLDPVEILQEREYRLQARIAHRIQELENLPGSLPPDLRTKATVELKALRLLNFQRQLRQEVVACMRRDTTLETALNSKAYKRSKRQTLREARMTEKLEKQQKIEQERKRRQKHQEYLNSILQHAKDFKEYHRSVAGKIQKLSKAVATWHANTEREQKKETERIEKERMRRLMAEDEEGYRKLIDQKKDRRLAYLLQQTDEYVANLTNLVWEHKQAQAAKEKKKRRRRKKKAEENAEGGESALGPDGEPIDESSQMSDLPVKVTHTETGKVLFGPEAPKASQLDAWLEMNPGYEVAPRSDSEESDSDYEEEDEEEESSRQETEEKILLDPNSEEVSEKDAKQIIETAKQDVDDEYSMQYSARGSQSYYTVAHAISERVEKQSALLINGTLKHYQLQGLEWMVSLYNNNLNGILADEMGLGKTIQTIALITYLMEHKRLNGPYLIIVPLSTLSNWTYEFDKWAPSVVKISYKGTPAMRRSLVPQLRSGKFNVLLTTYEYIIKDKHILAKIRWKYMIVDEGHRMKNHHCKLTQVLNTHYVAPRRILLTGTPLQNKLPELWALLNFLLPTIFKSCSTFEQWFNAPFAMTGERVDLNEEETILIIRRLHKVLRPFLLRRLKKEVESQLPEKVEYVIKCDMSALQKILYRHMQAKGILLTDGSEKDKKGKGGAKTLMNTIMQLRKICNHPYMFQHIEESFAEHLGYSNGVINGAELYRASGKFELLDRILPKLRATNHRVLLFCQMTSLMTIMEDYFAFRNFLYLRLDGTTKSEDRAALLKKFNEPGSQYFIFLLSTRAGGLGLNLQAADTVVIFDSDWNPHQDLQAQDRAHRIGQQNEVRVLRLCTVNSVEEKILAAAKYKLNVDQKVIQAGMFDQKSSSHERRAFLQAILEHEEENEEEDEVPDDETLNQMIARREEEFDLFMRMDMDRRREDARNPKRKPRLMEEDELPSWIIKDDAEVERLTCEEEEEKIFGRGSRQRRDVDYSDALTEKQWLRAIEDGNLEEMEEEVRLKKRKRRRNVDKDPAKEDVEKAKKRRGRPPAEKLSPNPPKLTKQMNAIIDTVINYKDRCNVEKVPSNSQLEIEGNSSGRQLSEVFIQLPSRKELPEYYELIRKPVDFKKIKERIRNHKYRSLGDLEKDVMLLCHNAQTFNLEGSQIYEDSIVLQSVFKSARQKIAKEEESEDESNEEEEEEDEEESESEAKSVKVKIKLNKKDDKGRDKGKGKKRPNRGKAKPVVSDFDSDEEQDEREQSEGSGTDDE
- Sequence (P40337 whole entry): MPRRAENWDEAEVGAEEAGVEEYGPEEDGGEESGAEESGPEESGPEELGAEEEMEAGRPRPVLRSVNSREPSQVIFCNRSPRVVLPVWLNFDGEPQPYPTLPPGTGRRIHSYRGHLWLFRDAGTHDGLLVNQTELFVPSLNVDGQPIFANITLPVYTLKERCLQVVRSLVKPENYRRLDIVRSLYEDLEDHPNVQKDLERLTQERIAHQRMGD
- Assay: PROTAC activity at SMARCA2/VHL1 in human HeLa cells assessed as protein degradation by Nano-Glo HiBiT lytic detection assay
- Assay type: cell-based
Measure name: DC50 (nM)

These solved cases illustrate the format of a correct answer.
INSERT INTO assay_data (compound_smiles, measure_name, quantitative_result) VALUES
  ('Cc1ncsc1-c1ccc([C@H](CN2CC(C)(O)C2)NC(=O)[C@@H]2C[C@@H](O)CN2C(=O)[C@@H](n2cc([C@H]3CC[C@H](CN4CCC(c5ccc6c(c5)-n5c(nc(=O)c7c(Cl)cccc75)C65CCCCC5)CC4)CC3)nn2)C(C)(C)C)cc1', 'DC50', 2),
  ('Cc1nc(C)c(-c2ccc([C@H](CN3CCOCC3)NC(=O)[C@@H]3C[C@@H](O)CN3C(=O)[C@@H](n3cc([C@H]4CC[C@H](CN5CCC(c6ccc7c(c6)-n6c(nc(=O)c8c(Cl)cccc86)C76CCCCC6)CC5)CC4)nn3)C(C)(C)C)cc2)s1', 'DC50', 1),
  ('Cc1ncsc1-c1ccc([C@H](CN2CC(C)(F)C2)NC(=O)[C@@H]2C[C@@H](O)CN2C(=O)[C@@H](n2cc([C@H]3CC[C@H](CN4CCC(c5ccc6c(c5)-n5c(nc(=O)c7c(Cl)cccc75)C65CCCCC5)CC4)CC3)nn2)C(C)(C)C)cc1', 'DC50', 1),
  ('COCCOCCOC[C@H](NC(=O)[C@@H]1C[C@@H](O)CN1C(=O)[C@@H](n1cc([C@H]2CC[C@H](CN3CCC(c4ccc5c(c4)-n4c(nc(=O)c6c(Cl)cccc64)C54CCCCC4)CC3)CC2)nn1)C(C)(C)C)c1ccc(-c2scnc2C)cc1', 'DC50', 0.4);

P: Cc1ncsc1-c1ccc([C@H](CN2CCC(F)(F)CC2)NC(=O)[C@@H]2C[C@@H](O)CN2C(=O)[C@@H](n2cc([C@H]3CC[C@H](CN4CCC(c5ccc6c(c5)-n5c(nc(=O)c7c(Cl)cccc75)C65CCCCC5)CC4)CC3)nn2)C(C)(C)C)cc1
Q: CC(C)(C)[C@@H](C(=O)N1C[C@H](O)C[C@H]1C(=O)N[C@@H](CN1CCOCC1)c1ccc(-c2ocnc2C(F)(F)F)cc1)n1cc([C@H]2CC[C@H](CN3CCC(c4ccc5c(c4)-n4c(nc(=O)c6c(Cl)cccc64)C54CCCCC4)CC3)CC2)nn1
R: Cc1nc(C)c(-c2ccc([C@H](CN3CCOCC3)NC(=O)[C@@H]3C[C@@H](O)CN3C(=O)[C@@H](n3cc([C@H]4CC[C@H](CN5CCC(c6ccc7c(c6)-n6c(nc(=O)c8c(Cl)cccc86)C76CCCCC6)CC5)CC4)nn3)C(C)(C)C)cc2)o1
Query string: Rank items: key DC50, increasing. Rank them, then answer with their labels in that order.
Result string: R, P, Q
